Catalogue of normalised response readings, one per entry.
Test system: BT-549
procedureDetails: normalised response (% of control), CellTiter-Glo; higher = more viable cells (100 = DMSO, 0 = benzethonium chloride kill control)
conditionDescription: incubation time: 72 h
measuredParameter: normalised response (%)

compound	measuredParameter	numericValue
Nc1ncn([C@@H]2O[C@H](CO)[C@@H](O)[C@H]2O)c(=O)n1 [Azacitidine] (10000 nM)	normalised response	45
CC(C)(C)c1cnc(CSc2cnc(NC(=O)C3CCNCC3)s2)o1 [SNS-032] (10000 nM)	normalised response	5.15
Nc1nc2[nH]cnc2c(=S)[nH]1 [Thioguanine] (10000 nM)	normalised response	48.5
COc1cc(F)c(F)c(Nc2ccc(I)cc2F)c1NS(=O)(=O)C1(C[C@H](O)CO)CC1 [Refametinib] (10000 nM)	normalised response	65.7
CC(=O)c1c(C)c2cnc(Nc3ccc(N4CCNCC4)cn3)nc2n(C2CCCC2)c1=O [Palbociclib] (10000 nM)	normalised response	79.3

###

A collection of compounds and their measured normalised response
Tested on: MDA-MB-453
procedureDetails: normalised response (% of control), CellTiter-Glo; higher = more viable cells (100 = DMSO, 0 = benzethonium chloride kill control)
conditionDescription: incubation time: 72 h
measuredParameter: normalised response (%)

compound	system	numericValue
CC(=O)O[C@@]12CO[C@@H]1C[C@H](O)[C@@]1(C)C(=O)[C@H](O)C3=C(C)[C@@H](OC(=O)[C@H](O)[C@@H](NC(=O)OC(C)(C)C)c4ccccc4)C[C@@](O)([C@@H](OC(=O)c4ccccc4)[C@H]21)C3(C)C [Docetaxel] (1000 nM)	MDA-MB-453	44.4
CC1(C)CNc2cc(NC(=O)c3cccnc3NCc3ccncc3)ccc21 [Motesanib] (10000 nM)	MDA-MB-453	91.6
CC(C)(C)c1cnc(CSc2cnc(NC(=O)C3CCNCC3)s2)o1 [SNS-032] (10000 nM)	MDA-MB-453	56.4
Cn1cc(C2=Nc3cc(NC(=O)C(N)C4CCCCC4)cc4c3C2=CNNC4=O)cn1 (configuration not stated) (10000 nM)	MDA-MB-453	46.6
Nc1nc2[nH]cnc2c(=S)[nH]1 [Thioguanine] (10000 nM)	MDA-MB-453	79
COc1cc(F)c(F)c(Nc2ccc(I)cc2F)c1NS(=O)(=O)C1(C[C@H](O)CO)CC1 [Refametinib] (10000 nM)	MDA-MB-453	82.7
CC(=O)N(O)CCCCCNC(=O)CCC(=O)N(O)CCCCCNC(=O)CCC(=O)N(O)CCCCCN [Deferoxamine] (10000 nM)	MDA-MB-453	89.6

###

Test system: BT-474
procedureDetails: normalised response (% of control), CellTiter-Glo; higher = more viable cells (100 = DMSO, 0 = benzethonium chloride kill control)
conditionDescription: incubation time: 72 h
Label yes when normalised response is at or above 90%; anything below gets no.

compound	classLabel
Cn1cc(C2=Nc3cc(NC(=O)C(N)C4CCCCC4)cc4c3C2=CNNC4=O)cn1 (configuration not stated) (1 nM)	yes
CC(=O)O[C@@]12CO[C@@H]1C[C@H](O)[C@@]1(C)C(=O)[C@H](O)C3=C(C)[C@@H](OC(=O)[C@H](O)[C@@H](NC(=O)OC(C)(C)C)c4ccccc4)C[C@@](O)([C@@H](OC(=O)c4ccccc4)[C@H]21)C3(C)C [Docetaxel] (0.1 nM)	yes
CC(=O)c1c(C)c2cnc(Nc3ccc(N4CCNCC4)cn3)nc2n(C2CCCC2)c1=O [Palbociclib] (10 nM)	yes
Nc1nc2[nH]cnc2c(=S)[nH]1 [Thioguanine] (1000 nM)	no
COc1cc2c(cc1O)CC[C@@H]1[C@@H]2CC[C@]2(C)[C@@H](O)CC[C@@H]12 [2-methoxyestradiol] (1000 nM)	no
COc1cc2c(cc1O)CC[C@@H]1[C@@H]2CC[C@]2(C)[C@@H](O)CC[C@@H]12 [2-methoxyestradiol] (10 nM)	yes
Cc1sc2c(c1C)C(c1ccc(Cl)cc1)=N[C@@H](CC(=O)OC(C)(C)C)c1nnc(C)n1-2 [(+)JQ1] (1000 nM)	no
Cn1cnc2c(F)c(Nc3ccc(Br)cc3Cl)c(C(=O)NOCCO)cc21 [Selumetinib] (1 nM)	no
C[C@]1(O)C[C@@H](c2nc(-c3ccc4ccc(-c5ccccc5)nc4c3)c3c(N)nccn32)C1 [Linsitinib] (1000 nM)	no
Oc1ncnc2[nH]ncc12 [Allopurinol] (1 nM)	yes
Oc1ncnc2[nH]ncc12 [Allopurinol] (10 nM)	yes
Cn1cc(C2=Nc3cc(NC(=O)C(N)C4CCCCC4)cc4c3C2=CNNC4=O)cn1 (configuration not stated) (1000 nM)	no
CC1=C2C[C@H]3[C@@H](CC=C4C[C@@H](O)CC[C@@]43C)[C@@H]2CC[C@]12O[C@@H]1C[C@H](C)CN[C@H]1[C@H]2C [Cyclopamine] (10 nM)	yes
CC1=C2C[C@H]3[C@@H](CC=C4C[C@@H](O)CC[C@@]43C)[C@@H]2CC[C@]12O[C@@H]1C[C@H](C)CN[C@H]1[C@H]2C [Cyclopamine] (1 nM)	yes

###

Recorded drug sensitivity score, one value per entry.
System: SK-BR-3
procedureDetails: drug sensitivity score (DSS), CellTiter-Glo (DSS (AUC-based score)); higher = stronger drug effect (viability inhibition or cytotoxicity); extreme values may be limits of the assay
conditionDescription: incubation time: 72 h
measuredParameter: drug sensitivity score

structureAsSmiles	numericValue
CC(=O)O[C@@]12CO[C@@H]1C[C@H](O)[C@@]1(C)C(=O)[C@H](O)C3=C(C)[C@@H](OC(=O)[C@H](O)[C@@H](NC(=O)OC(C)(C)C)c4ccccc4)C[C@@](O)([C@@H](OC(=O)c4ccccc4)[C@H]21)C3(C)C	31.4
Nc1nc2[nH]cnc2c(=S)[nH]1	0
COc1cc(F)c(F)c(Nc2ccc(I)cc2F)c1NS(=O)(=O)C1(C[C@H](O)CO)CC1	0
CC(=O)N(O)CCCCCNC(=O)CCC(=O)N(O)CCCCCNC(=O)CCC(=O)N(O)CCCCCN	4.14
CC1(C)CNc2cc(NC(=O)c3cccnc3NCc3ccncc3)ccc21	0

###

Consider the following molecules and their measured normalised response readings.
System: CAL-51
procedureDetails: normalised response (% of control), CellTiter-Glo; higher = more viable cells (100 = DMSO, 0 = benzethonium chloride kill control)
conditionDescription: incubation time: 72 h

molecule	system	unitDescriptor	normalised response
COc1cc2c(cc1O)CC[C@@H]1[C@@H]2CC[C@]2(C)[C@@H](O)CC[C@@H]12 [2-methoxyestradiol] (10 nM)	CAL-51	%	97.5
CC(=O)O[C@@]12CO[C@@H]1C[C@H](O)[C@@]1(C)C(=O)[C@H](O)C3=C(C)[C@@H](OC(=O)[C@H](O)[C@@H](NC(=O)OC(C)(C)C)c4ccccc4)C[C@@](O)([C@@H](OC(=O)c4ccccc4)[C@H]21)C3(C)C [Docetaxel] (0.1 nM)	CAL-51	%	94.5
Cn1cnc2c(F)c(Nc3ccc(Br)cc3Cl)c(C(=O)NOCCO)cc21 [Selumetinib] (10 nM)	CAL-51	%	107

###

Tested on: MDA-MB-231
conditionDescription: 72 h
API: label(entry) gives Y if the entry's EC50, CellTiter-Blue viability is strictly smaller than 200 nM; on equality or larger values it gives N.

molecule	classLabel
Nc1nc2[nH]cnc2c(=S)[nH]1	N
CC(=O)O[C@@]12CO[C@@H]1C[C@H](O)[C@@]1(C)C(=O)[C@H](O)C3=C(C)[C@@H](OC(=O)[C@H](O)[C@@H](NC(=O)OC(C)(C)C)c4ccccc4)C[C@@](O)([C@@H](OC(=O)c4ccccc4)[C@H]21)C3(C)C	Y
CC(C)(C)c1cnc(CSc2cnc(NC(=O)C3CCNCC3)s2)o1	Y
Cc1sc2c(c1C)C(c1ccc(Cl)cc1)=N[C@@H](CC(=O)OC(C)(C)C)c1nnc(C)n1-2 [(+)JQ1]	N
COc1cc(F)c(F)c(Nc2ccc(I)cc2F)c1NS(=O)(=O)C1(C[C@H](O)CO)CC1	Y

###

Test system: MDA-MB-453
procedureDetails: drug sensitivity score (DSS), CellTiter-Glo (DSS (AUC-based score)); higher = stronger drug effect (viability inhibition or cytotoxicity); extreme values may be limits of the assay
conditionDescription: incubation time: 72 h
// reported drug sensitivity score for each item listed
measuredParameter: drug sensitivity score

compound	numericValue
Nc1ncn([C@@H]2O[C@H](CO)[C@@H](O)[C@H]2O)c(=O)n1 [Azacitidine]	0
O=NN(CCCl)C(=O)NCCCl [Carmustine]	0
Nc1nc2[nH]cnc2c(=S)[nH]1 [Thioguanine]	1.4
Cc1ccc([N+](=O)[O-])cc1S(=O)(=O)N(C)/N=C/c1cnc2ccc(Br)cn12 [PIK-75]	23
CC(C)(C)c1cnc(CSc2cnc(NC(=O)C3CCNCC3)s2)o1 [SNS-032]	17.7
